Entry source: ChEMBL document CHEMBL1155233

Give measured IC50 for each item. Keep answers brief.
Measured target: Thioredoxin reductase 1, cytoplasmic (Rattus norvegicus)
Sequence (O89049 whole entry): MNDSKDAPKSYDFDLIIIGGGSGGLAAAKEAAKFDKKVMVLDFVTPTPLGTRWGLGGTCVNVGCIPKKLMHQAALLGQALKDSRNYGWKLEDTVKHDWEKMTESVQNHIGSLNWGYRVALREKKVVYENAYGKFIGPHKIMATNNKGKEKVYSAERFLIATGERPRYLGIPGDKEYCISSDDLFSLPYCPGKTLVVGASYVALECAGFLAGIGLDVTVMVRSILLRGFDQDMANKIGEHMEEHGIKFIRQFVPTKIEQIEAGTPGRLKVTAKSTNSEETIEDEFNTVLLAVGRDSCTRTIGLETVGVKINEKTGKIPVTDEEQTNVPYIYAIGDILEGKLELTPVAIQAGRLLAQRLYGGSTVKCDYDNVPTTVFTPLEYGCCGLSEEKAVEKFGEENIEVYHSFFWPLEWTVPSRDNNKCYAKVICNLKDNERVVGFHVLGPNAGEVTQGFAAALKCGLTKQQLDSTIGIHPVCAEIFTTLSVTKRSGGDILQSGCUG
Assay text: Inhibition of rat recombinant TrxR1 after 10 mins

(Q) // query IC50 value for entry NC(=O)c1c(-c2ccccc2)no[n+]1[O-]
(A) > 400 µM

(Q) // query IC50 value for entry O=Cc1c(-c2ccccc2)no[n+]1[O-]
(A) < 12.5 µM

(Q) // query IC50 value for entry COc1cccc(-c2no[n+]([O-])c2C#N)c1
(A) > 400 µM

(Q) // query IC50 value for entry N#Cc1c(-c2ccc(C(F)(F)F)cc2)no[n+]1[O-]
(A) < 12.5 µM

(Q) // query IC50 value for entry N#Cc1c(-c2ccc(F)c(Br)c2)no[n+]1[O-]
(A) 250 µM

(Q) // query IC50 value for entry Cc1c(-c2ccccc2)no[n+]1[O-]
(A) > 400 µM

(Q) // query IC50 value for entry N#Cc1c(-c2ccc(F)cc2)no[n+]1[O-]
(A) 300 µM

---

Give measured IC50 for each item. Keep answers brief.
Measured target: Glutathione reductase, mitochondrial (Homo sapiens)
Sequence (P00390 whole entry): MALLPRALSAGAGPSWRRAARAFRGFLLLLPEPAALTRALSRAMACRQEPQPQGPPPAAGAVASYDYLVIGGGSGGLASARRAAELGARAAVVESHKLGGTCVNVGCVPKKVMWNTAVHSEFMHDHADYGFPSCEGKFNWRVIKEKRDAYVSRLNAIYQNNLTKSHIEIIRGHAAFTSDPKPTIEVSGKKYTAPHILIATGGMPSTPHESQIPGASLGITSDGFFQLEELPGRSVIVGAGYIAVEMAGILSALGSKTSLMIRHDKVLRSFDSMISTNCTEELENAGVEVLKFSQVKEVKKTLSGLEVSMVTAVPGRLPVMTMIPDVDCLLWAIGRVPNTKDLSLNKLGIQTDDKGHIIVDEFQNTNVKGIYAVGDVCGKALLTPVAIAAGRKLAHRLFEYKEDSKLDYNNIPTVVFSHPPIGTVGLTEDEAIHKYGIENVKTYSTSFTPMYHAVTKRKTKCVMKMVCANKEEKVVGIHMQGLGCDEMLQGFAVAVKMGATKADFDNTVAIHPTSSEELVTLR
Assay text: Inhibition of human recombinant GR after 15 mins in presence of NADPH
Report as a plain number; the unit µM is understood.

(Q) // query IC50 value for entry N#Cc1c(-c2cccc(Cl)c2)no[n+]1[O-]
(A) 35.7

(Q) // query IC50 value for entry O=Cc1c(-c2ccccc2)no[n+]1[O-]
(A) 35.2

(Q) // query IC50 value for entry N#Cc1c(-c2ccc(C(F)(F)F)cc2)no[n+]1[O-]
(A) 45.3

---

Give measured Activity for each item. Keep answers brief.
Assay text: Induction of nitric oxide release at 10 uM in presence of Schistosoma mansoni recombinant TGR
Type: functional

(Q) // query Activity value for entry N#Cc1c(-c2ccc(F)cc2)no[n+]1[O-]
(A) < 1%

(Q) // query Activity value for entry N#Cc1nonc1-c1ccccc1
(A) < 1%

(Q) // query Activity value for entry N#Cc1no[n+]([O-])c1-c1ccccc1
(A) < 1%

---

Assay text: Induction of nitric oxide release at 10 uM in presence of Schistosoma mansoni recombinant TGR and NADPH
Type: functional
Attribute measured: Activity

(Q) // query Activity value for entry N#Cc1c(-c2ccc(F)cc2)no[n+]1[O-]
(A) 13%

(Q) // query Activity value for entry O=C(O)c1c(-c2ccccc2)no[n+]1[O-]
(A) 7%

(Q) // query Activity value for entry COc1cccc(-c2no[n+]([O-])c2C#N)c1
(A) 9%

(Q) // query Activity value for entry N#Cc1nonc1-c1ccccc1
(A) 3%

(Q) // query Activity value for entry N#Cc1c(-c2ccc(F)c(Br)c2)no[n+]1[O-]
(A) 19%

(Q) // query Activity value for entry N#Cc1no[n+]([O-])c1-c1ccccc1
(A) 5%

(Q) // query Activity value for entry N#Cc1c(-c2ccco2)no[n+]1[O-]
(A) 16%

(Q) // query Activity value for entry COc1cc(-c2no[n+]([O-])c2C#N)cc(OC)c1OC
(A) 8%

(Q) // query Activity value for entry COc1ccc(-c2no[n+]([O-])c2C#N)cc1
(A) 10%

(Q) // query Activity value for entry N#Cc1c(-c2cccs2)no[n+]1[O-]
(A) 2%

(Q) // query Activity value for entry N#Cc1c(-c2ccc(Br)cc2)no[n+]1[O-]
(A) 19%

(Q) // query Activity value for entry Cc1c(-c2ccccc2)no[n+]1[O-]
(A) < 1%

(Q) // query Activity value for entry N#Cc1c(-c2ccc(C(F)(F)F)cc2)no[n+]1[O-]
(A) 22%

(Q) // query Activity value for entry N#Cc1c(-c2ccc(Cl)cc2)no[n+]1[O-]
(A) 16%

(Q) // query Activity value for entry N#Cc1c(-c2ccccc2)no[n+]1[O-] [FUROXAN]
(A) 15%

(Q) // query Activity value for entry N#Cc1c(-c2cccc(Cl)c2)no[n+]1[O-]
(A) 12%

---

Give measured pIC50 for each item. Keep answers brief.
Measured target: Glutathione reductase, mitochondrial (Homo sapiens)
Assay text: Inhibition of human recombinant GR after 15 mins in presence of NADPH
pIC50: −log10 of the molar value.

(Q) // query pIC50 value for entry N#Cc1c(-c2ccc(F)cc2)no[n+]1[O-]
(A) < 4.30

(Q) // query pIC50 value for entry COc1cccc(-c2no[n+]([O-])c2C#N)c1
(A) < 4.30

(Q) // query pIC50 value for entry NC(=O)c1c(-c2ccccc2)no[n+]1[O-]
(A) < 4.30
